These measurements were taken from patent US6787546B2.

Below is a list of entries, each paired with its recorded melting point value.

Solved cases (3 shown):
>>> print(df.to_string())
                               smiles_input  observation_type  measured_result
0  COc1ccc(S(=O)(=O)N(C(=O)c2cccnc2)c2ccccc2/C=C/c2cc[n+]([O-])cc2)cc1.Cl.Cl     melting point    187 to 189 °C
1  COc1ccc(S(=O)(=O)N(C(=O)CN)c2ccccc2/C=C/c2cc[n+]([O-])cc2)cc1.Cl     melting point    235 to 237 °C
2  COc1ccc(S(=O)(=O)N(C(=O)CN2CCN(c3cccnc3)CC2)c2ccccc2/C=C/c2cc[n+]([O-])cc2)cc1.Cl.Cl     melting point    167 °C (dec.)

Alright, here's another compound for you.
Exercise: Give the measured melting point of COc1ccc(S(=O)(=O)N(C(=O)c2ccncc2)c2ccccc2/C=C/c2cc[n+]([O-])cc2)cc1.Cl.Cl .
Solution: 198 to 200 °C
